Target: T1, LGR7 (leucine-rich repeat-containing GPCR 7) (human, UniProt Q9HBX9 1-757)
T1 sequence (looked up): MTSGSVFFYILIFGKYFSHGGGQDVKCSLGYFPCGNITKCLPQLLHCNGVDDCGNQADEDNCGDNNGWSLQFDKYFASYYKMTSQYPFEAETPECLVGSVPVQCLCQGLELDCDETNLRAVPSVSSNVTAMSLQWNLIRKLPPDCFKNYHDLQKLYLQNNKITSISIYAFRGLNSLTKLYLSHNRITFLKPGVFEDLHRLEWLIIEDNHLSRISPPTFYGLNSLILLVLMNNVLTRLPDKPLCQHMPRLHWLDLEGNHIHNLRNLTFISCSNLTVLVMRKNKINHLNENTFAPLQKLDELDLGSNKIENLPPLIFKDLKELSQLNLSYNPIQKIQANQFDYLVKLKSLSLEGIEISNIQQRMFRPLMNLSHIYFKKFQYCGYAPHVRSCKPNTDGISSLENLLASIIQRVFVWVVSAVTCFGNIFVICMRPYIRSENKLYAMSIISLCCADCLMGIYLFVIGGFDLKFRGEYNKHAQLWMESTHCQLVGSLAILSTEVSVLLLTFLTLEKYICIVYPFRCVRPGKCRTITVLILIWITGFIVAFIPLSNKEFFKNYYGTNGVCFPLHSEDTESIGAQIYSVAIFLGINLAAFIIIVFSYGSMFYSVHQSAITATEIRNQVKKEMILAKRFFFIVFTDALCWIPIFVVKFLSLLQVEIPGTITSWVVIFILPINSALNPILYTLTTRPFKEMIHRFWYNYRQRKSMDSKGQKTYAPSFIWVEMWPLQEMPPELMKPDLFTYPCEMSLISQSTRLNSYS
Experiment: cell-based or functional assay
Where no end group is shown, it is not given here.
# pEC50, stimulation of cAMP production in LGR7-expressing HEK293T cells annotations

Here is how some binders turned out for pEC50, stimulation of cAMP production in LGR7-expressing HEK293T cells.
1) WT RLN2 (recombinant wild type human RLN2, Myc- and His6-tagged) (ligand, not shown: small tags and cut ends, also called wild type RLN2; wild type peptide) chain 1: SWMEEVIKLCGRELVRAQIAICGMSTWSHHHHHH chain 2: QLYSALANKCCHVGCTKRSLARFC    9.3
2) RLN2^A22-23 (ligand, not shown: small tags and cut ends, It is read here as both residues changed to alanine) chain 1: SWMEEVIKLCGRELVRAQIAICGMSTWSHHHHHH chain 2: QLYSALANKCCHVGCTKRSLAAAC    8.87

## Task Indicate the recorded pEC50, stimulation of cAMP production in LGR7-expressing HEK293T cells value for this binder: RLN2 R^A18A (ligand, not shown: small tags and cut ends) chain 1: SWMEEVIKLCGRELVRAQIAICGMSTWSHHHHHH chain 2: QLYSALANKCCHVGCTKASLARFC
## Result 9.67

## Task Indicate the recorded pEC50, stimulation of cAMP production in LGR7-expressing HEK293T cells value for this binder: Nontagged human RLN2 peptide (ligand, not fully specified (bridges); ends and bridges not checked, Used as a standard; also called Nontagged RLN2; nontagged wild type RLN2 peptide) chain 1: SWMEEVIKLCGRELVRAQIAICGMSTWS chain 2: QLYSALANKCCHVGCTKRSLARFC
## Result 6.53
